Recorded pIC50 values for a group of compounds are listed next.
Target: D816V Kit (Homo sapiens, UniProt P10721, D816V)
Sequence (P10721 26-976 D816V): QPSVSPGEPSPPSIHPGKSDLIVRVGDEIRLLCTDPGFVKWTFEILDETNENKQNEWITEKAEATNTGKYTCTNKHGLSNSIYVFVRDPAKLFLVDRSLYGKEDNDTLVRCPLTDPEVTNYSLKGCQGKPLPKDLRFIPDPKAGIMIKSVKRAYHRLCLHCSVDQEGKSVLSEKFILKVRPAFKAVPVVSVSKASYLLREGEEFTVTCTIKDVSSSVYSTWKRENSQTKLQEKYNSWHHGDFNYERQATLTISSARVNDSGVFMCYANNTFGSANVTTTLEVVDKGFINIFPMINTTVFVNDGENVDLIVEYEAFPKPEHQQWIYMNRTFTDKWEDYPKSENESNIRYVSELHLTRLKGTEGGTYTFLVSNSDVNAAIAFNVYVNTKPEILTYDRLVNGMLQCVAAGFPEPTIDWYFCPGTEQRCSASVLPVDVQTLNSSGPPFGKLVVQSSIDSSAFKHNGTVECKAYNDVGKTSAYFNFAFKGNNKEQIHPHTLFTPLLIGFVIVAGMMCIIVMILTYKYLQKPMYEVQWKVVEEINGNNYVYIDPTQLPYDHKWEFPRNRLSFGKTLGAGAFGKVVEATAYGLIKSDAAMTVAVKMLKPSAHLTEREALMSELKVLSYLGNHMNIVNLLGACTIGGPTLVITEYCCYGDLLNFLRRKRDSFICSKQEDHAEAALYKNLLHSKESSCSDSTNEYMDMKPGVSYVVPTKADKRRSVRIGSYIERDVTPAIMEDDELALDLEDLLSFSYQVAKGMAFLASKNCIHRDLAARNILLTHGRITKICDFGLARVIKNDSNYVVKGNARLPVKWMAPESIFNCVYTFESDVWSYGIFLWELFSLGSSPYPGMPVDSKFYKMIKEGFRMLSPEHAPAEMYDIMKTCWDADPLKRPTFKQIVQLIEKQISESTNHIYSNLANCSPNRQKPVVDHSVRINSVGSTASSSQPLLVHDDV
Experiment: Kit D816V assay at Km (Caliper electrophoretic mobility shift)
Conditions: D816V Kit 0.5 nM, 15 uM ATP (Km), 1 uM Srctide, 25 C, 90 minutes; read-out: Biochemical Activity D816V IC50
pIC50: −log10 of the molar value.

Please report the recorded pIC50 for Cn1cc(-c2cc3c(-c4ccc(NC(=O)Cc5ccccc5)cc4)ncnn3c2)cn1 [Compound 3] .
8.00 to 9.00

Please report the recorded pIC50 for Cn1cc(-c2cc3c(-c4ccc(NC(=O)Cc5cccnc5)cc4)ncnn3c2)cn1 [Compound 4] .
8.00 to 9.00

Please report the recorded pIC50 for Cn1cc(-c2cc3c(-c4ccc(NS(C)(=O)=O)cc4)ncnn3c2)cn1 [Compound 1] .
8.00 to 9.00

Please report the recorded pIC50 for CC(C)(C)Oc1ccc(-c2cc3c(-c4ccc(NC(=O)Cc5ccc(Cl)cc5)cc4)ncnn3c2)cc1 [Compound 61] .
7.00 to 8.00

Please report the recorded pIC50 for COC(C(=O)Nc1ccc(-c2ncnn3cc(-c4cnn(C)c4)cc23)cc1)c1ccccc1 (centres unmarked) [Compound 15] .
8.00 to 9.00

Please report the recorded pIC50 for Cn1cc(-c2cc3c(-c4ccc(NC(=O)Cc5c[nH]c6ccccc56)cc4)ncnn3c2)cn1 [Compound 23] .
8.00 to 9.00

Please report the recorded pIC50 for CC(C(=O)Nc1ccc(-c2ncnn3cc(-c4cnn(C)c4)cc23)cc1)c1ccc(Cl)cc1 (centres unmarked) [Compound 29] .
8.00 to 9.00

Please report the recorded pIC50 for C[C@H](C(=O)Nc1ccc(-c2ncnn3cc(-c4cnn(C)c4)cc23)cc1)c1ccc(Cl)cc1 [Compound 30] .
7.00 to 8.00

====

Molecular target: D816V Kit (Homo sapiens, UniProt P10721, D816V)
Assay: Kit D816V assay at Km (Caliper electrophoretic mobility shift)
Conditions: D816V Kit 0.5 nM, 15 uM ATP (Km), 1 uM Srctide, 25 C, 90 minutes; read-out: Biochemical Activity D816V IC50
EXPERIMENTAL_READOUT: IC50

[
  {
    "MOL_SMILES": "Cn1cc(-c2cc3c(-c4ccc(NC(=O)c5ccc(C#N)cc5)cc4)ncnn3c2)cn1",
    "TARGET_OF_ASSAY": "D816V Kit (Homo sapiens, UniProt P10721, D816V)",
    "VALUE": "0.01 to 0.1 µM"
  },
  {
    "MOL_SMILES": "Cc1ccc(CC(=O)Nc2ccc(-c3ncnn4cc(-c5cnn(C)c5)cc34)cc2)cc1",
    "TARGET_OF_ASSAY": "D816V Kit (Homo sapiens, UniProt P10721, D816V)",
    "VALUE": "0.00101 to 0.01 µM"
  },
  {
    "MOL_SMILES": "COc1ccc(S(=O)(=O)Nc2ccc(-c3ncnn4cc(-c5cnn(C)c5)cc34)cc2)cc1",
    "TARGET_OF_ASSAY": "D816V Kit (Homo sapiens, UniProt P10721, D816V)",
    "VALUE": "0.00101 to 0.01 µM"
  }
]

Please report the recorded IC50 for Cn1cc(-c2cc3c(-c4ccc(NC(=O)Cc5ccc(F)cc5)cc4)ncnn3c2)cn1 .
0.00101 to 0.01 µM
